# Test system: HeLa
# PROTOCOL_NOTES: Cytotoxicity against human HeLa cells after 48 hrs by WST8 assay
# Format: functional, cell-based
pIC50: −log10 of the molar value.
Quick reference for pIC50 among some molecules
ASSAY_ENDPOINT: pIC50

1. Oc1cccc(/C=C/C[C@H]2C[C@@H]([C@@H](O)c3ccccc3)CO[C@@H]2c2ccccc2)c1 : 4.73
2. O=[N+]([O-])c1ccc(/C=C/C[C@H]2C[C@@H]([C@@H](O)c3ccccc3)CO[C@@H]2c2ccccc2)cc1 : 4.91
3. COc1ccc(CCC[C@@H]2C[C@@H]([C@@H](O)c3ccc(OC)c(OC)c3)CO[C@H]2c2ccc(OC)c(OC)c2)cc1OC : 4.45
4. COc1ccc(/C=C/C[C@H]2C[C@H]([C@H](O)c3ccc(OC)c(OC)c3)CO[C@@H]2c2ccc(OC)c(OC)c2)cc1OC : 4.46
5. C=CC[C@H]1C[C@@H]([C@@H](O)c2ccccc2)CO[C@@H]1c1ccccc1 : 4.60
6. COc1ccc(/C=C/C[C@H]2C[C@@H]([C@@H](O)c3ccc(OC)c(OC)c3)CO[C@@H]2c2ccc(OC)c(OC)c2)cc1 : 4.91

---

# System: HeLa
# PROTOCOL_NOTES: Cytotoxicity against human HeLa cells after 48 hrs by WST8 assay
# Type: functional, cell-based
pIC50: −log10 of the molar value.
Binary classification by pIC50, with 5 as an inclusive lower bound for Met; all other cases are Not met.

1) COc1cccc(/C=C/C[C@@H]2C[C@@H]([C@@H](O)c3ccc(OC)c(OC)c3)CO[C@H]2c2ccc(OC)c(OC)c2)c1 : Not met
2) COc1cccc(/C=C/C[C@H]2C[C@@H]([C@@H](O)c3ccc(OC)c(OC)c3)CO[C@@H]2c2ccc(OC)c(OC)c2)c1 : Not met
3) COc1ccc(/C=C/C[C@H]2C[C@@H]([C@@H](O)c3ccc(OC)c(OC)c3)CO[C@@H]2c2ccccc2)cc1OC : Not met
4) O[C@@H](c1ccccc1)[C@H]1CO[C@H](c2ccccc2)[C@@H](C/C=C/c2ccccc2)C1 : Met
5) COc1cccc([C@H]2OC[C@H]([C@@H](O)c3ccc(OC)c(OC)c3)C[C@@H]2C/C=C/c2ccc(OC)c(OC)c2)c1 : Not met

---

# Tested on: HL-60
# PROTOCOL_NOTES: Cytotoxicity against human HL60 cells after 48 hrs by WST8 assay
# Type: functional, cell-based
# TEST_CONTEXT: HL-60, 48 h
pIC50: −log10 of the molar value.
Binary classification by pIC50, with 5 as an inclusive lower bound for 1 (yes); all other cases are 0 (no).

1. C=CC[C@H]1C[C@@H]([C@@H](O)c2ccccc2)CO[C@@H]1c1ccccc1 : 0 (no)
2. COc1ccc(/C=C/C[C@H]2C[C@H]([C@H](O)c3ccc(OC)c(OC)c3)CO[C@@H]2c2ccc(OC)c(OC)c2)cc1OC : 0 (no)
3. O[C@@H](c1ccccc1)[C@H]1CO[C@H](c2ccccc2)[C@@H](C/C=C/c2ccccc2)C1 : 1 (yes)
4. O=[N+]([O-])c1cccc(/C=C/C[C@H]2C[C@@H]([C@@H](O)c3ccccc3)CO[C@@H]2c2ccccc2)c1 : 1 (yes)
5. COc1ccc(/C=C/C[C@@H]2C[C@@H]([C@@H](O)c3ccc(OC)c(OC)c3)CO[C@H]2c2ccc(OC)c(OC)c2)cc1OC : 0 (no)
6. COc1ccc(/C=C/C[C@H]2C[C@@H]([C@@H](O)c3ccc(OC)c(OC)c3)CO[C@@H]2c2ccc(OC)c(OC)c2)cc1OC : 0 (no)
7. CCCCCC/C=C/C[C@H]1C[C@@H]([C@@H](O)c2ccccc2)CO[C@@H]1c1ccccc1 : 1 (yes)
8. O[C@@H](c1ccccc1)[C@H]1CO[C@H](c2ccccc2)[C@@H](C/C=C/c2cccnc2)C1 : 0 (no)

---

Quick reference for IC50 among some molecules
# Tested on: HeLa
# PROTOCOL_NOTES: Cytotoxicity against human HeLa cells after 48 hrs by WST8 assay
# Format: functional, cell-based
ASSAY_ENDPOINT: IC50 (µM)

1) COc1ccc([C@H]2OC[C@H]([C@@H](O)c3ccc(OC)c(OC)c3)C[C@@H]2C/C=C/c2ccccc2)cc1OC : 14.8
2) Cc1ccc(/C=C/C[C@H]2C[C@@H]([C@@H](O)c3ccccc3)CO[C@@H]2c2ccccc2)cc1C : 10
3) COc1cccc(/C=C/C[C@H]2C[C@@H]([C@@H](O)c3ccccc3)CO[C@@H]2c2ccccc2)c1 : 10.9
4) O=[N+]([O-])c1ccccc1/C=C/C[C@H]1C[C@@H]([C@@H](O)c2ccccc2)CO[C@@H]1c1ccccc1 : 11.8
5) COc1ccc(/C=C/C[C@@H]2C[C@@H]([C@@H](O)c3ccc(OC)c(OC)c3)CO[C@H]2c2ccccc2)cc1OC : 16.1
6) COc1ccc(/C=C/C[C@H]2C[C@@H]([C@@H](O)c3ccccc3)CO[C@@H]2c2ccc(OC)c(OC)c2)cc1OC : 15.5

---

Quick reference for pIC50 among some compounds
# Test system: HeLa
# PROTOCOL_NOTES: Cytotoxicity against human HeLa cells after 48 hrs by WST8 assay
# Format: functional, cell-based
pIC50: −log10 of the molar value.
ASSAY_ENDPOINT: pIC50

1. Oc1ccc(/C=C/C[C@H]2C[C@@H]([C@@H](O)c3ccccc3)CO[C@@H]2c2ccccc2)cc1 : 4.84
2. COc1ccc([C@H](O)[C@H]2CO[C@@H](c3ccc(OC)c(OC)c3)[C@H](C/C=C/c3ccc(OC)c(OC)c3)C2)cc1 : 4.49
3. O[C@@H](c1ccccc1)[C@H]1CO[C@H](c2ccccc2)[C@@H](C/C=C/c2ccc(F)cc2)C1 : 5.08
4. COc1ccc([C@H](O)[C@H]2CO[C@H](c3ccc(OC)c(OC)c3)[C@@H](C/C=C/c3ccc(OC)c(OC)c3)C2)cc1 : 4.34
5. COc1ccc(/C=C/C[C@@H]2C[C@@H]([C@@H](O)c3ccc(OC)c(OC)c3)CO[C@H]2c2ccc(OC)c(OC)c2)cc1OC : 4.51
6. CCCCCC/C=C/C[C@H]1C[C@@H]([C@@H](O)c2ccccc2)CO[C@@H]1c1ccccc1 : 5.13

---

# Test system: HeLa
# PROTOCOL_NOTES: Cytotoxicity against human HeLa cells after 48 hrs by WST8 assay
# Format: functional, cell-based
pIC50: −log10 of the molar value.
ASSAY_ENDPOINT: pIC50

1. COc1ccc(/C=C/C[C@H]2C[C@@H]([C@@H](O)c3ccc(OC)c(OC)c3)CO[C@@H]2c2ccc(OC)c(OC)c2)cc1OC : 4.62
2. COc1ccc([C@H](O)[C@H]2CO[C@@H](c3ccc(OC)c(OC)c3)[C@H](C/C=C/c3ccccc3)C2)cc1OC : 4.79
3. O[C@@H](c1ccccc1)[C@H]1CO[C@H](c2ccccc2)[C@@H](C/C=C/C2CCCC2)C1 : 5.03
4. COc1cccc([C@@H]2OC[C@H]([C@@H](O)c3ccc(OC)c(OC)c3)C[C@H]2C/C=C/c2ccc(OC)c(OC)c2)c1 : 4.52
5. COc1ccc(/C=C/C[C@H]2C[C@@H]([C@@H](O)c3ccccc3)CO[C@@H]2c2ccccc2)cc1 : 5.08
6. Oc1ccccc1/C=C/C[C@H]1C[C@@H]([C@@H](O)c2ccccc2)CO[C@@H]1c1ccccc1 : 4.66
7. COc1ccc(/C=C/C[C@@H]2C[C@@H]([C@@H](O)c3ccc(OC)c(OC)c3)CO[C@H]2c2ccc(OC)c(OC)c2)cc1 : 4.77

---

# Test system: HeLa
# PROTOCOL_NOTES: Cytotoxicity against human HeLa cells after 48 hrs by WST8 assay
# Assay type: functional, cell-based
pIC50: −log10 of the molar value.
ASSAY_ENDPOINT: pIC50

1. O[C@@H](c1ccccc1)[C@H]1CO[C@H](c2ccccc2)[C@@H](C/C=C/c2ccccc2F)C1 : 5.01
2. COc1ccc([C@H]2OC[C@H]([C@@H](O)c3ccc(OC)c(OC)c3)C[C@@H]2C/C=C/c2ccc(OC)c(OC)c2)cc1 : 4.33
3. COc1cccc([C@H](O)[C@H]2CO[C@@H](c3ccc(OC)c(OC)c3)[C@H](C/C=C/c3ccc(OC)c(OC)c3)C2)c1 : 4.73

---

# Test system: HeLa
# PROTOCOL_NOTES: Cytotoxicity against human HeLa cells after 48 hrs by WST8 assay
# Format: functional, cell-based
Field 'label' (enum: YES / NO). Set to YES when IC50 is strictly under 30 µM; else NO.

1) COc1ccc(/C=C/C[C@@H]2C[C@H]([C@H](O)c3ccc(OC)c(OC)c3)CO[C@H]2c2ccc(OC)c(OC)c2)cc1OC : YES
2) COc1ccc(/C=C/C[C@@H]2C[C@@H]([C@@H](O)c3ccccc3)CO[C@H]2c2ccc(OC)c(OC)c2)cc1OC : YES
3) COc1ccccc1/C=C/C[C@H]1C[C@@H]([C@@H](O)c2ccccc2)CO[C@@H]1c1ccccc1 : YES
4) O[C@@H](c1ccccc1)[C@H]1CO[C@H](c2ccccc2)[C@@H](C/C=C/c2cccc(F)c2)C1 : YES
5) COc1ccc(CCC[C@H]2C[C@@H]([C@@H](O)c3ccc(OC)c(OC)c3)CO[C@@H]2c2ccc(OC)c(OC)c2)cc1OC : NO
6) O[C@@H](c1ccccc1)[C@H]1CO[C@H](c2ccccc2)[C@@H](C/C=C/c2ccncc2)C1 : NO
7) O[C@@H](c1ccccc1)[C@H]1CO[C@H](c2ccccc2)[C@@H](C/C=C/c2cccnc2)C1 : NO
